TEST SUMMARY: Half life in iv dosed mouse
Type: ADME, organism-based
SETTINGS: in vivo
Starred links: 1 amine or outer side, 2 acyl side, 3 side chain; linkers in the order of their positions; H or OH if unused. Non-standard residues stand in square brackets, D forms with d. Residues, ends and D or L forms follow the SMILES beside them. *: point of attachment. X6 = C[C@H](CO[C@H](CC1C[C@H]2CC[C@@H](C1)C2)[C@@H](C)C(=O)[*:2])N[*:1]; X3 = C[C@H](CO[C@H](CC1CC2(CCC2)C1)[C@@H](C)C(=O)[*:2])N[*:1]; X1 = CCCCCC[C@@H](OC[C@@H](C)N[*:1])[C@@H](C)C(=O)[*:2]; Cyclobutyl(trans-3-NH2) = N[C@H]1C[C@H](*)C1; Gly(cHept) = N[C@H](C(=O)O)C1CCCCCC1; NMeNva = CCC[C@H](NC)C(=O)O; X2 = NC[C@H]1C[C@H](*)C1; Dap = NC[C@H](N)C(=O)O; X5 = NCCCNCCC*
Exam item: assign Yes to entries whose half-life is below 200 min and No to entries at or above 200 min. Note that a value of exactly 200 min receives No.

Here's an entry: CCCCCC[C@H]1OC[C@@H](C)NC(=O)[C@H](CO[C@H]2C[C@H](CN)C2)NC(=O)[C@H](CN)NC(=O)[C@H](C2CCCCCC2)NC(=O)[C@H](CCC)N(C)C(=O)[C@@H]1C (cyclo([Dap]S(X2)[X1][NMeNva][Gly(cHept)])) . Is its half-life below 200 min? No

Lab note: half-life threshold 200 min. Does this molecule come in strictly under it? CCC[C@H]1C(=O)N[C@@H](C2CCCCCC2)C(=O)N[C@@H](CN)C(=O)N[C@@H](COCCCNCCCN)C(=O)N[C@H](C)CO[C@H](CC2C[C@H]3CC[C@@H](C2)C3)[C@@H](C)C(=O)N1C (stereo partly specified) (cyclo([Dap]S(X5)[X6][NMeNva][Gly(cHept)])) Yes

Check if half-life falls below 200 min for `CCCCCC[C@H]1OC(=O)CNC(=O)[C@H]([C@H](C)O)NC(=O)[C@H](CO)NC(=O)[C@H]([C@H](C)CC)NC(=O)[C@H](CC(C)C)N(C)C(=O)[C@@H]1C` . Yes

Lab note: confirm whether the reported half-life for this molecule is below 200 min, equality not counting. molecule: CCC[C@H]1C(=O)N[C@@H](C2CCCCCC2)C(=O)N[C@@H](CN)C(=O)N[C@@H](CO[C@H]2C[C@H](N)C2)C(=O)N[C@H](C)CO[C@H](CC2CC3(CCC3)C2)[C@@H](C)C(=O)N1C (cyclo([Dap]S(Cyclobutyl(trans-3-NH2))[X3][NMeNva][Gly(cHept)])) No

Find out if reported half-life for CCC[C@H]1C(=O)N[C@@H](C2CCCCCC2)C(=O)N[C@@H](CN)C(=O)N[C@@H](COCCCNCCCN)C(=O)N[C@H](C)CO[C@H](CC2CC3(CCC3)C2)[C@@H](C)C(=O)N1C (cyclo([Dap]S(X5)[X3][NMeNva][Gly(cHept)])) is less than 200 min No

Record CCC[C@H]1C(=O)N[C@@H](C2CCCCCC2)C(=O)N[C@@H](CN)C(=O)N[C@@H](CO[C@H]2C[C@H](N)C2)C(=O)N[C@H](C)CO[C@H](CC2C[C@H]3CC[C@@H](C2)C3)[C@@H](C)C(=O)N1C (stereo partly drawn) (cyclo([Dap]S(Cyclobutyl(trans-3-NH2))[X6][NMeNva][Gly(cHept)])) : is its half-life strictly below 200 min? Yes

* * *

TEST SUMMARY: Growth inhibition of Staphylococcus aureus USA300
Starred links: 1 amine or outer side, 2 acyl side, 3 side chain; linkers in the order of their positions; H or OH if unused. Non-standard residues stand in square brackets, D forms with d. Residues, ends and D or L forms follow the SMILES beside them. *: point of attachment. X1 = CCCCCC[C@@H](OC[C@@H](C)N[*:1])[C@@H](C)C(=O)[*:2]; X7 = CCCCCC[C@@H](O[C@H](C)CN[*:1])[C@@H](C)C(=O)[*:2]; Gly(cHept) = N[C@H](C(=O)O)C1CCCCCC1; Propyl(3-guanidino) = N=C(N)NCCC*; aThr = C[C@H](O)[C@H](N)C(=O)O; NMeL = CN[C@@H](CC(C)C)C(=O)O; Chg = N[C@H](C(=O)O)C1CCCCC1; NMeNva = CCC[C@H](NC)C(=O)O; X14 = NCCN1CC[C@H](*)C1; Dap = NC[C@H](N)C(=O)O; Propyl(3-NH2) = NCCC*
Provide the recorded MIC for the entries that follow.
Reply with just the number (in µM).

Quickly give me recorded MIC for `CCCC(C)(C)CC[C@H]1OC(=O)CNC(=O)[C@H]([C@H](C)O)NC(=O)[C@H](CN)NC(=O)[C@H]([C@H](C)CC)NC(=O)[C@H](CC(C)C)N(C)C(=O)[C@@H]1C` 100

Return value of MIC for input `CCC[C@H]1C(=O)N[C@@H](C2CCCCCC2)C(=O)N[C@@H](CN)C(=O)N[C@@H]([C@H](C)O)C(=O)NCC(=O)O[C@H](C[C@@H]2CC[C@@H]3CC[C@H]2C3)[C@@H](C)C(=O)N1C` , no commentary. 25

Retrieve MIC measured for `CCCCCCCCCC[C@H]1OC(=O)CNC(=O)[C@H]([C@H](C)O)NC(=O)[C@H](CCN)NC(=O)[C@H]([C@@H](C)CC)NC(=O)[C@H](CC(C)C)N(C)C(=O)[C@@H]1C` and print it. 13

Give recorded MIC. CCCCCC[C@H]1OC[C@@H](C)NC(=O)[C@H](COCCCN)NC(=O)[C@H](CN)NC(=O)[C@H](C2CCCCC2)NC(=O)[C@H](CC(C)C)N(C)C(=O)[C@@H]1C (cyclo([Chg][Dap]S(Propyl(3-NH2))[X1][NMeL])) 100

Check the records and state MIC for CCCCCC[C@H]1OC[C@@H](C)NC(=O)[C@H](COCCCNC(=N)N)NC(=O)[C@H](CN)NC(=O)[C@H](C2CCCCC2)NC(=O)[C@H](CC(C)C)N(C)C(=O)[C@@H]1C (cyclo([Chg][Dap]S(Propyl(3-guanidino))[X1][NMeL])) 5

Quick one: give measured MIC for `CCCCCC[C@H]1OC[C@@H](C)NC(=O)[C@H](CNCCCN)NC(=O)[C@H](CN)NC(=O)[C@H](C2CCCCCC2)NC(=O)[C@H](CCC)N(C)C(=O)[C@@H]1C` 50

Note MIC for the compound shown: CCCCCC[C@H]1O[C@H](C)CNC(=O)[C@H]([C@H](C)O)NC(=O)[C@H](CN)NC(=O)[C@H](C2CCCCC2)NC(=O)[C@H](CC(C)C)N(C)C(=O)[C@@H]1C (cyclo([Chg][Dap][aThr][X7][NMeL])) 100

Indicate its recorded MIC; the compound in question is CCCCCC[C@H]1OC[C@@H](C)NC(=O)[C@H](CO[C@H]2CCN(CCN)C2)NC(=O)[C@H](CN)NC(=O)[C@H](C2CCCCCC2)NC(=O)[C@H](CCC)N(C)C(=O)[C@@H]1C (cyclo([Dap]S(X14)[X1][NMeNva][Gly(cHept)])) 100

* * *

TEST SUMMARY: Half life in iv dosed rat
Format: ADME, organism-based
SETTINGS: in vivo
Starred links: 1 amine or outer side, 2 acyl side, 3 side chain; linkers in the order of their positions; H or OH if unused. Non-standard residues stand in square brackets, D forms with d. Residues, ends and D or L forms follow the SMILES beside them. *: point of attachment. X6 = C[C@H](CO[C@H](CC1C[C@H]2CC[C@@H](C1)C2)[C@@H](C)C(=O)[*:2])N[*:1]; dAlaψ(CH2NBu)Nle = CCCC[C@@H](C(=O)[*:2])N(CCCC)C[C@@H](C)N[*:1]; X3 = C[C@H](CO[C@H](CC1CC2(CCC2)C1)[C@@H](C)C(=O)[*:2])N[*:1]; Cyclobutyl(trans-3-NH2) = N[C@H]1C[C@H](*)C1; X4 = CCCCCCN(CCN[*:1])[C@@H](C)C(=O)[*:2]; Gly(cHept) = N[C@H](C(=O)O)C1CCCCCC1; aThr = C[C@H](O)[C@H](N)C(=O)O; NMeL = CN[C@@H](CC(C)C)C(=O)O; Chg = N[C@H](C(=O)O)C1CCCCC1; NMeNva = CCC[C@H](NC)C(=O)O; Dap = NC[C@H](N)C(=O)O
Record form. Attribute: half-life. Fill in for each entry.
Express your answer in h, writing the number without its unit.

Quick one: give measured half-life for CCC[C@H]1C(=O)N[C@@H](C2CCCCCC2)C(=O)N[C@@H](CN)C(=O)N[C@@H](CO[C@H]2C[C@H](N)C2)C(=O)N[C@H](C)CO[C@H](CC2C[C@H]3CC[C@@H](C2)C3)[C@@H](C)C(=O)N1C (stereo partly drawn) (cyclo([Dap]S(Cyclobutyl(trans-3-NH2))[X6][NMeNva][Gly(cHept)])) 5.8

Note half-life for the compound shown: CCCC[C@H]1C(=O)N(C)[C@@H](CC(C)C)C(=O)N[C@@H](C2CCCCC2)C(=O)N[C@@H](CN)C(=O)N[C@@H]([C@H](C)O)C(=O)N[C@H](C)CN1CCCC (cyclo([Chg][Dap][aThr][dAlaψ(CH2NBu)Nle][NMeL])) 2.6

Answer with the recorded half-life of CCCCCCN1CCNC(=O)[C@H](CO[C@H]2C[C@H](N)C2)NC(=O)[C@H](CN)NC(=O)[C@H](C2CCCCC2)NC(=O)[C@H](CC(C)C)N(C)C(=O)[C@@H]1C (cyclo([Chg][Dap]S(Cyclobutyl(trans-3-NH2))[X4][NMeL])) only. 1.6

Tell me measured half-life for CCC[C@H]1C(=O)N[C@@H](C2CCCCCC2)C(=O)N[C@@H](CN)C(=O)N[C@@H](CO[C@H]2C[C@H](N)C2)C(=O)N[C@H](C)CO[C@H](CC2CC3(CCC3)C2)[C@@H](C)C(=O)N1C (cyclo([Dap]S(Cyclobutyl(trans-3-NH2))[X3][NMeNva][Gly(cHept)])) please. 3.2

Input CCCC[C@H]1C(=O)N(C)[C@@H](CCC)C(=O)N[C@@H](C2CCCCC2)C(=O)N[C@@H](CN)C(=O)N[C@@H](CO[C@H]2C[C@H](N)C2)C(=O)N[C@H](C)CN1CCCC (cyclo([Chg][Dap]S(Cyclobutyl(trans-3-NH2))[dAlaψ(CH2NBu)Nle][NMeNva])) , output reported half-life. 6.8
